These data points were gathered from PubChem BioAssay.

Test description: human hepatoma cell viability loss – ATP luminescence, cytotoxicity control for P. falciparum antimalarial project, primary screen (AID 2303);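 also: 0% = DMSO wells and 100% = digitonin-killed cells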
Condition details: HepG2 viability, 24-48 h, at 10 µM
The source made the active and inactive calls.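 The calls were made as follows: active = inhibition above 50%; inactive = the rest.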
Output constraint: value belongs to active, inactive

Input line: Lab log entry: Fc1ccc2nc(-c3ccc(-c4ccc(CN5CCC(CCN6CCCCC6)CC5)cc4)cc3)[nH]c2c1 — outcome as called in the assay?
Output line: active

* * *

Test description: inhibition of 3D7 malaria parasite growth – strain 3D7 (AID 2306);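 also: 0% = DMSO wells and 100% = chloroquine plus artemisinin control wells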
Condition details: P. falciparum 3D7 erythrocytic growth, LDH absorbance, 72 h; at 2 µM; stronger effect = higher value
Reported growth inhibition values follow for various molecules
Please give a number only; it is taken to be in %.

Reference set (4 entries):
Cc1cccn2c(=O)c3cc(C(=O)NC4CCCCC4)c(=N)n(CCCn4ccnc4)c3nc12: 102
CC(C)(C)c1cc2cc(Nc3ccnc4cc(-c5nccs5)ccc34)ccc2[nH]1: 101
Cc1cccc2[nH]c(-c3ccc(-c4ccc(CNCc5ccc(S(C)(=O)=O)cc5)cc4)cc3)nc12: 93
O=C(NC(c1ccc(Cl)cc1)c1ccc2cccnc2c1O)c1ccccc1 (centres undefined): 87

Input line: Name the recorded growth inhibition for CC(=O)Nc1ccc2[nH]cc(C3CCN(CC4CCC(NC(=O)/C=C/c5ccccc5Cl)CC4)CC3)c2n1 (centres undefined) .
Output line: 101

Input line: Name the recorded growth inhibition for CCCNCc1ccc(-c2ccc(CN(Cc3cnc(C)cn3)C(=O)CC#N)cc2)nc1 .
Output line: 92

Input line: Name the recorded growth inhibition for CCOC(=O)c1ccc(N2CCN(c3cc(C)ccc3C)CC2)c(NC(=O)Nc2ccc(Cl)c(Cl)c2)c1 .
Output line: 100

Input line: Name the recorded growth inhibition for Nc1oc2c(CN3CCCCCC3)c(O)ccc2c(=O)c1-c1nc2ccccc2s1 .
Output line: 100

Input line: Name the recorded growth inhibition for COc1ccc2c(NN=Cc3cccc(C)n3)cc(-c3ccccc3)nc2c1 .
Output line: 97

Input line: Name the recorded growth inhibition for COc1ccc(NC(=O)Nc2cccc(-c3cccc(-c4nc5c(C)cccc5[nH]4)c3)c2)cc1 .
Output line: 101

Input line: Name the recorded growth inhibition for O=C(/C=C/c1ccc(Cl)c(Cl)c1)NCCCCN1CCCN(C(=O)Nc2cc(Cl)cc(Cl)c2)CC1 .
Output line: 97

Input line: Name the recorded growth inhibition for Fc1ccc(CNc2ccc3ncc(-c4cccnc4)n3n2)cc1 .
Output line: 87

Input line: Name the recorded growth inhibition for COc1ccc2nc3cc(Cl)ccc3c(NCc3ccccc3)c2c1 .
Output line: 101

Input line: Name the recorded growth inhibition for CCN1CCC(N(Cc2ccc(-c3ccc(C(F)(F)F)s3)cc2)C(=O)Cn2c(CCc3cccc(F)c3F)nc(=O)c3ccccc32)CC1 .
Output line: 93

Input line: Name the recorded growth inhibition for O=C(c1ccc([N+](=O)[O-])o1)N1CCC(c2cn(Cc3cccc(F)c3)c3ccccc23)CC1 .
Output line: 97

Input line: Name the recorded growth inhibition for CNCCCn1c(N(C)C)nc2cc(-n3cnc4cc(-c5ccc(Cl)cc5)sc4c3=O)ccc21 .
Output line: 86

Input line: Name the recorded growth inhibition for Cc1cc(N[C@@H](Cc2ccccc2)C(=O)NCCOc2ccccc2)nc(NCCc2cccs2)n1 .
Output line: 95

Input line: Name the recorded growth inhibition for N/C(=N\c1cccc(Cc2ccc([N+](=O)[O-])cc2)n1)Nc1ccccc1 .
Output line: 96

Input line: Name the recorded growth inhibition for CCCCn1c(-c2ccco2)nc2c(c(=O)c3ccccc3n2C)c1=O .
Output line: 87
